molecular target: human CB2 receptor (Homo sapiens); construct: expressed in transfected cells; host or cells: CHO cells (membrane preparations); assay: cAMP accumulation assay, CHO cells stably expressing CB2; type: cell-based
readout label: EC50 (nM)
One number for each entry, in nM.

Field EC50 (human CB2 receptor (Homo sapiens)), entry COC(=O)[C@@H](NC(=O)c1nn(Cc2ccc(F)cc2)c2ccccc12)C(C)(C)C : 0.756

###

Target: human GPR55 (Homo sapiens, UniProt Q9Y2T6)
Construct: host or cells: CHO cells
Sequence (Q9Y2T6 whole entry): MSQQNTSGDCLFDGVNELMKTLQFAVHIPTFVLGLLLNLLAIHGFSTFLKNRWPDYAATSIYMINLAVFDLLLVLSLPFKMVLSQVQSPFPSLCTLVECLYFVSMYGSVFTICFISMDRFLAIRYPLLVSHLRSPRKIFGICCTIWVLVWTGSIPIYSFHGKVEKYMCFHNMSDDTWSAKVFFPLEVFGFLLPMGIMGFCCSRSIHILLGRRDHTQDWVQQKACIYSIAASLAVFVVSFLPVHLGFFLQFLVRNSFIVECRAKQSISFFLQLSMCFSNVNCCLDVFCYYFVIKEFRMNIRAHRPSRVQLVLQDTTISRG
Assay: β-Arrestin PathHunter assay, recombinant CHO cells expressing GPR55
Assay type: cell-based
Conditions: agonist mode, value in parentheses
Procedure: β-Arrestin assays were performed in recombinant CHO cells expressing either the human GPR18 or the human GPR55 as described before using the β-galactosidase enzyme fragment complementation technology (β-arrestin PathHunter™ assay; DiscoverX, Fremont, CA, USA). The orphan receptors GPR18 and GPR55 can interact with certain natural and synthetic cannabinoids. […]
Kindly state Human GPR55 % activation for each of the entries shown.
One number for each entry, in %.

{"columns": ["molecule", "readout units", "Human GPR55 % activation"],
 "data": [
  ["CC(C)[C@H](NC(=O)c1nn(Cc2cccc(F)c2)c2ccccc12)C(N)=O [compound 18, AB-FUBINACA (3-F-benzyl-isomer)]", "%", 11],
  ["CC(C)(C)[C@H](NC(=O)c1cn(CC2CCCCC2)c2ccccc12)C(N)=O", "%", 17]
]}

I have 5 molecules here; please give me Human GPR55 % activation for each one.
1. COC(=O)[C@@H](OC(=O)c1nn(CC2CCCCC2)c2ccccc12)C(C)(C)C
2. CC(C)(NC(=O)c1cn(CCCCCF)c2ccccc12)c1ccccc1
3. COC(=O)[C@@H](NC(=O)c1cn(CCCCCF)c2ccccc12)C(C)C
4. CC(C)(C)[C@H](NC(=O)c1nn(CC2CCCCC2)c2ccccc12)C(N)=O
5. COC(=O)[C@@H](NC(=O)c1nn(Cc2ccc(F)cc2)c2ccccc12)C(C)C

1
14
5
16
4

###

molecular target: UniProt P34972
readout label: Ki (nM)
One number for each entry, in nM.

// worked examples, Ki included
{"columns": ["cpd smiles", "readout units", "experimental value"],
 "data": [
  ["NC(=O)[C@H](Cc1ccccc1)NC(=O)c1nn(Cc2ccc(F)cc2)c2ccccc12", "nM", 58.1],
  ["CC(C)(C)[C@H](NC(=O)c1cn(CCCCCF)c2ccccc12)C(N)=O", "nM", 1.83],
  ["O=C(c1cccc2ccccc12)c1cn(Cc2ccc(F)cc2)c2ccccc12", "nM", 1.34]
]}

Record summary for NC(=O)[C@H](Cc1ccccc1)NC(=O)c1nn(CCCCCF)c2ccccc12 : reported Ki = 17.4

###

biological target: human CB2 receptor (Homo sapiens, UniProt P34972); construct: expressed in transfected cells; host or cells: CHO cells (membrane preparations); assay: cAMP accumulation assay, CHO cells stably expressing CB2; type: cell-based; conditions: forskolin 10 µM; read-out: EC50 CB2 receptor activation, cAMP accumulation
Sequence (P34972 whole entry): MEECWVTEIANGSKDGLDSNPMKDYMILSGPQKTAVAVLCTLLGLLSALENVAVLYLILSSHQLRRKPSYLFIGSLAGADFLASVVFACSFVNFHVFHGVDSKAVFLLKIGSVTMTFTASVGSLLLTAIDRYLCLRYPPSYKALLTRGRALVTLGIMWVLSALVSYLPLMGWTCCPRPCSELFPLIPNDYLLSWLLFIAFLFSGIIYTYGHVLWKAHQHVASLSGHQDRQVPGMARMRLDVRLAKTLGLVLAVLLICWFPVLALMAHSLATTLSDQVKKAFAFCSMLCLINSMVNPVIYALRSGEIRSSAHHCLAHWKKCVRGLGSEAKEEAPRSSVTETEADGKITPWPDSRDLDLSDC
readout label: pEC50
Answers are plain numbers, as −log10 of the molar value.

pEC50 for O=C(c1ccc2c(c1)c1ccccc1n2CCCCCF)c1cccc2ccccc12 is 8.25

###

target: human CB2 receptor (Homo sapiens); construct: expressed in transfected cells; host or cells: CHO cells (membrane preparations); test: cAMP accumulation assay, CHO cells stably expressing CB2; format: cell-based; details: compound at 10 µM; normalized to CP55,940 (1 µM)
readout label: CB2 receptor activation in cAMP accumulation assay (in words)

{"columns": ["molecule", "experimental value"],
 "data": [
  ["NC(=O)[C@H](Cc1ccccc1)NC(=O)c1nn(Cc2ccc(F)cc2)c2ccccc12 [compound 29, APP-FUBINACA]", "full agonists"],
  ["COC(=O)[C@@H](NC(=O)c1nn(CCCCCF)c2ccccc12)C(C)(C)C [compound 11, 5F-ADB]", "full agonists"]
]}
